# tested.target: Histamine H4 receptor (Homo sapiens) (UniProt Q9H3N8)
# Sequence (Q9H3N8 whole entry): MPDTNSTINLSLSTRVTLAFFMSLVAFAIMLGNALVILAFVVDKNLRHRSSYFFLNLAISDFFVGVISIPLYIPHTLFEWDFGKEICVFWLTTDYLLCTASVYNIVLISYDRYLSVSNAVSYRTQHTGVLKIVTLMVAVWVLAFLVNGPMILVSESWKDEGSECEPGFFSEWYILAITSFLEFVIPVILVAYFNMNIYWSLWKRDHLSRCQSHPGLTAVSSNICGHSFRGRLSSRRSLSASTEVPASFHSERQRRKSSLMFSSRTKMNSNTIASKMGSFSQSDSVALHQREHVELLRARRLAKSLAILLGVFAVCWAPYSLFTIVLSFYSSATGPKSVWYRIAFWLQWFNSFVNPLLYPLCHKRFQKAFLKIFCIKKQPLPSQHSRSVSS
# condition.label: Compound concentration 10 µM
inhibition: recorded values
# number only, unit % dropped from output

Cc1cccc(NC(=O)N[C@@H]2N=C(c3ccccc3)c3ccccc3N(C)C2=O)c1: 18.3
CN1CCN(c2ccc(Nc3c4ccccc4nc4ccccc34)cc2)CC1: 15.5
CCCn1c(=O)c2nc(C34CC5CC(CC3C5)C4)[nH]c2n(CCC)c1=O: 6.77
Clc1cccc(COc2cncc(N3CCNCC3)n2)c1: 49.1
CCOC(=O)c1cc(C#N)c(N2CCC(C(=O)NS(=O)(=O)Cc3ccccc3)CC2)nc1C: 6.28

[in] Quick check: inhibition of "CCN(CC)CCCCC1CCN(CC(=O)N2c3ccccc3C(=O)Nc3cccnc32)CC1" ?
[out] 21.4

[in] Quick check: inhibition of "Cc1cc(NC(=O)Nc2ccc(N(C)C)cc2)c2cc(F)cc(F)c2n1" ?
[out] 5.25

[in] Quick check: inhibition of "C=CCN1C[C@H](C)N([C@H](c2ccc(C(=O)N(CC)CC)cc2)c2cccc(O)c2)C[C@H]1C" ?
[out] -9.85

[in] Quick check: inhibition of "C[C@H](NC[C@H](O)CP(=O)(O)CC1CCCCC1)c1ccc(Cl)c(Cl)c1" ?
[out] 1.86

[in] Quick check: inhibition of "COC1CCN(c2cccc(-c3cc(NC(C)=O)nc(-n4nc(C)cc4C)n3)n2)CC1" ?
[out] 5.32

[in] Quick check: inhibition of "NC[C@@H]1O[C@H](C23CC4CC(CC(C4)C2)C3)Cc2c1ccc(O)c2O" ?
[out] -6.56

[in] Quick check: inhibition of "c1cc(CN2CCCNCCNCCCNCC2)ccc1CN1CCCNCCNCCCNCC1" ?
[out] 11.2

[in] Quick check: inhibition of "CCCCCCCCCCCCC/C=C/[C@@H](O)[C@@H](N)COP(=O)(O)O" ?
[out] 7.9

[in] Quick check: inhibition of "COc1ccc(NS(=O)(=O)c2sc3ccc(Cl)cc3c2C)cc1N1CCNCC1" ?
[out] 18.2

[in] Quick check: inhibition of "CCCNS(=O)(=O)Nc1ncnc(OCCOc2ncc(Br)cn2)c1-c1ccc(Br)cc1" ?
[out] 8.98

[in] Quick check: inhibition of COc1ccc(C2(O)OC(=O)C(c3ccc4c(c3)OCO4)=C2Cc2cc(OC)c(OC)c(OC)c2)cc1 (stereo unspecified) ?
[out] 14.6

[in] Quick check: inhibition of "COC(=O)[C@H]1[C@H]2C[C@H]3c4[nH]c5ccccc5c4CCN3C[C@H]2CC[C@@H]1O" ?
[out] 8.74

[in] Quick check: inhibition of "Cc1c(C(=O)NC2CCCCC2)sc2nc3ccc(N)cc3n12" ?
[out] 1.51

[in] Quick check: inhibition of "CCc1nn2c(C)cc(C)nc2c1Cc1ccc(-c2nnc(C3CCNCC3)o2)cc1" ?
[out] -1.79

[in] Quick check: inhibition of "Cc1cc(C)c(N)c(C#Cc2cccc(F)c2)n1" ?
[out] 8.38

[in] Quick check: inhibition of CN1C2CCC1CC(OC(c1ccc(F)cc1)c1ccc(F)cc1)C2 (stereo unspecified) ?
[out] 67.8

###

# tested.target: Alpha-2B adrenergic receptor (Homo sapiens) (UniProt P18089)
# Sequence (P18089 whole entry): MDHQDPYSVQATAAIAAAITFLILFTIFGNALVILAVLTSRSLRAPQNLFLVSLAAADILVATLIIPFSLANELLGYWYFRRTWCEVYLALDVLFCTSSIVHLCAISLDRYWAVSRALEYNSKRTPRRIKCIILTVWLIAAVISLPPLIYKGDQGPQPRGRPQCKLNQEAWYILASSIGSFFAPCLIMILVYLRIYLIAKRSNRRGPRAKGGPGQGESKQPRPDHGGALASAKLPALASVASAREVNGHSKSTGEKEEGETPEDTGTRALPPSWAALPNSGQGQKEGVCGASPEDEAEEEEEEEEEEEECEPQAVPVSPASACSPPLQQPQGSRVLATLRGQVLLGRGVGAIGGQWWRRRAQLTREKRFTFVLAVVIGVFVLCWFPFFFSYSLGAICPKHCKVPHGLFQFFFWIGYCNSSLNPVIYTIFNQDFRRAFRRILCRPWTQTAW
# condition.label: Compound concentration 10 µM
property.label: inhibition (%)
# number only, unit % dropped from output

CNC[C@H](O)c1cccc(O)c1: 21.3
C[C@H](Cc1cc2c(c(C(N)=O)c1)N(CCCO)CC2)NCCOc1ccccc1OCC(F)(F)F: 69.7
O=C1N/C(=N/c2ccccc2F)S/C1=C\c1ccc(C(=O)O)cc1: -7.72
COC(=O)C1=C(C)NC(C)=C(C(=O)OCCCN2CCC(c3ccccc3)(c3ccccc3)CC2)[C@H]1c1cccc([N+](=O)[O-])c1: 90
CN(C)C(=O)N[C@H]1CC[C@H](CCN2CCN(c3cccc(Cl)c3Cl)CC2)CC1: 90.6

[in] Quick check: inhibition of "CCCCCNC(=O)NS(=O)(=O)c1cc([N+](=O)[O-])ccc1NC1CCCCC1" ?
[out] -2.94

[in] Quick check: inhibition of "CCC(=O)NCC[C@@H]1CCc2ccc3c(c21)CCO3" ?
[out] 22

[in] Quick check: inhibition of COc1ccc(C2(O)OC(=O)C(c3ccc4c(c3)OCO4)=C2Cc2cc(OC)c(OC)c(OC)c2)cc1 (stereo not given) ?
[out] -2.96

[in] Quick check: inhibition of "O=C(O)c1cc(-c2ccc(C3CCNCC3)cc2)c2ccc(-c3ccc(C(F)(F)F)cc3)cc2c1" ?
[out] 40.4

[in] Quick check: inhibition of "CN1CCN(c2ccc(Nc3c4ccccc4nc4ccccc34)cc2)CC1" ?
[out] 66

The measurements presented in this section are drawn from ChEMBL document CHEMBL5442219.
